Reference source: PubChem BioAssay (NCI)

Test system: T-47D breast
Experiment: NCI-60 one-dose screen, 48 h
Settings: 10 µM unless noted
The panel holds about 83,000 compounds, 20% with a hit somewhere; the sample as a whole holds those more often. Calls of active or inactive are those of the source. Rule for the calls: active = growth percent below 10; inactive = the rest.
Outcomes: active, inactive

Molecule	Class label
COc1cc(Cn2c(-c3ccccc3)cc3c2-c2oncc2CC3)cc(OC)c1OC	inactive
COc1cc(C2C=C(C)N=C3SC=NN32)cc(OC)c1OC (stereo unspecified)	inactive
CC(=O)c1c(O)c(C)c(O)c2c1OC1=CC(=O)/C(=C(/C)N)C(=O)C12C (stereo unspecified)	inactive
COc1ccc(C(=O)c2c(N)nc3n2CCCC3)cc1OC	inactive
CNC(=O)c1cc(Oc2ccc(NC(=O)c3nc(S(C)(=O)=O)sc3-c3ccc(F)cc3)cc2)ccn1	inactive
CNCc1cccc2c1OCCOCCOCCC(C)S(=O)(=O)c1ccc(cc1)-c1cnc(N)c(n1)C(=O)N2 (stereo unspecified)	inactive
COc1cc2c(cc1OC)C(=O)C(Br)CC2 (stereo unspecified)	inactive
CCCCOc1ncnc2nc[nH]c12	inactive
Cc1ccc(C2CC(c3cccs3)=NN2c2ccc(S(N)(=O)=O)cc2)s1 (stereo unspecified)	inactive
O=C1C=CC(=O)N1CO	inactive
COc1ccc2[nH]c(C(=O)OCc3ccc4c(Br)cc(Br)c(O)c4n3)cc2c1	active
CC(CN1CCN(CCOCCO)CC1)CN1c2ccccc2Sc2ccc(Cl)cc21 (stereo unspecified)	inactive
COc1ccc(C2CC(c3cccc(Nc4ccnc5cc(Cl)ccc45)c3)=NN2c2ccc(Cl)cc2)cc1 (stereo unspecified)	inactive
CC(=O)Nc1nonc1-c1nc2ccccc2n1Cc1ccc(C(C)(C)C)cc1	inactive
COc1ccc(-c2cnc3ccnn3c2-c2cc(OC)c(OC)c(OC)c2)cc1	inactive
[Ag].[Ag].[NH-]S(=O)(=O)c1ccc(N=Nc2cc(N=Nc3ccc(S([NH-])(=O)=O)cc3)c3c(NC(=O)C(Cl)Cl)cccc3c2OC(=O)C(Cl)Cl)cc1.[c-]1nccs1.[c-]1nccs1	active
COc1ccccc1NC(=O)OCC12COCN1COC2	inactive
CCCCN(CCCC)CCC(O)c1cc2ccc(C(F)(F)F)cc2c2cc(C(F)(F)F)ccc12 (stereo unspecified)	inactive
CC(C)NC(=O)OCC#CCOC(=O)NC(C)C	inactive
Cc1ccc(NC(=O)c2[nH]c(SCCN(C)C)nc2-c2ccc(F)cc2)cc1C#Cc1cnc2cccnn12	inactive
COc1ccc(Nc2ncnc3c2sc2nc(C)cc(C)c23)cc1	inactive

###

System: ACHN renal
Assay: NCI-60 one-dose screen, 48 h (100 = growth as untreated, 0 = no growth, -100 = all killed)
Details: 10 µM unless noted
About 83,000 compounds went through this panel and 20% of them were active in at least one assay; those are over-represented in the sample as a whole. Active and inactive are the calls of the source. Rule for the calls: active = growth percent below 10; inactive = the rest.

Compound	growth
COc1cc(OC)cc(-c2n/c(=C\c3c(O)[nH]c4ccc(Cl)cc34)cc3c2=Nc2ccccc2-3)c1	81.3% (inactive)
O=C(Cc1ccc(Nc2ccnc(C(F)(F)F)c2)cc1)N/N=C/c1ccccc1O	4.09% (active)
C=CCn1c(SCC(=O)Nc2ccc(C(=O)/C=C/c3ccccc3)cc2)nnc1-c1ccc(OC)c(OC)c1	86.8% (inactive)
O=C(O)Cn1ccc2ccccc21	99.9% (inactive)
CCOC(CN1CCN(CC(C)C(=O)c2ccccc2)CC1)c1ccccc1 (stereo not drawn)	106% (inactive)
CCCN(CCC)CC(O)COc1ccccc1C(=O)Nc1ccccc1 (stereo not drawn)	77.2% (inactive)
COc1ccc(/C=C/C(=O)c2ccc(NC(=O)CSc3nnc(-c4ccc(OC)cc4)n3-c3ccccc3)cc2)cc1	106% (inactive)
C#CC[C@@H]1C[C@]2(C)[C@H]3CC[C@@H]4[C@H]5C(C(=C)C)CC[C@]5(C(=O)NCCCCN)CC[C@@]4(C)[C@]3(C)CC[C@H]2C(C)(C)[C@H]1OC(C)=O (stereo partly drawn)	-98.3% (active)
Nc1ccc(N(O)/C=C2\C=CC=CC2=O)cc1N	76.3% (inactive)
O=C(Cn1nncc1CN1C(=O)CSC1=O)Nc1ccc(F)cc1	97.9% (inactive)
CC1(C)C2CCC(O)(C(=O)O)C1C2 (stereo not drawn)	111% (inactive)
CC(C)(C)CC(C)(C)NCc1cc(C(C)(C)C)cc(CNC(C)(C)CC(C)(C)C)c1O	37.4% (inactive)
O=C(N=Nc1c(Cl)c(O)c2ccccc2c1O)C(=O)Nc1cccc(C(F)(F)F)c1	58.4% (inactive)
COc1cc(NC(C)CCCN)c2ncccc2c1Sc1ccc(Cl)cc1 (stereo not drawn)	74.8% (inactive)
O=[N+]([O-])c1cccc([I+]c2ccccc2)c1	63.3% (inactive)
O=C(NCCNC(=O)c1cc(S(=O)(=O)NCCc2ccccc2)c(O)c(O)c1O)c1cc(S(=O)(=O)NCCc2ccccc2)c(O)c(O)c1O	68.6% (inactive)
COc1cccc(/C=N/N=C(N)N)c1	100% (inactive)
COC(=O)C1(C)COP(=O)(NC23CC4CC(CC(C4)C2)C3)OC1 (stereo not drawn)	103% (inactive)
Cc1c(O)c(=O)n(-c2ccccc2)n1C	96.5% (inactive)
O=C(NNC(=S)Nc1ccccc1)c1ccc(Nc2ncnc3c2cnn3-c2cccc(Br)c2)cc1	106% (inactive)
Cc1cc(C)c(C#N)c(SCC(=O)c2sc3c(C#N)c(C)cc(C)[n+]3c2[O-])n1	31% (inactive)
COc1ccc(C2CC(c3ccc(Nc4ccnc5cc(Cl)ccc45)cc3)=NN2c2ccccc2)cc1 (stereo not drawn)	97.2% (inactive)
COc1ccc2nc(NC(=O)/C(=C/c3cc(OC)c(OC)c(OC)c3)c3ccc(OC)c(OC)c3)sc2c1	94.9% (inactive)
CCCCCCCCCCCCCCCc1cc(O)ccc1[N+](=O)[O-]	91.9% (inactive)
O=C(Nc1ccc(Cl)c(C(F)(F)F)c1)c1ccc(Nc2ccc(Cl)nn2)cc1	52.4% (inactive)
Clc1ncnc2scc(C3COc4ccccc4O3)c12 (stereo not drawn)	96.2% (inactive)
Cc1ccc(NC(=O)c2[nH]c(SCCN(C)C)nc2-c2ccc(F)cc2)cc1Nc1ccc2ncn(C)c(=O)c2c1	69% (inactive)
O=C(Nc1ccc(Br)cc1)Nc1ccccc1Cl	84.4% (inactive)
C/C(=N\OC(=O)Nc1cccc(Cl)c1)c1ccccc1	101% (inactive)
Nc1nc2ccc([C@@H]3Nc4ccc5[nH]ncc5c4[C@H]4[C@H]5CCC(C5)[C@H]43)cc2s1	29.7% (inactive)
FC(F)(F)c1ccc(/C=N/Nc2nnc3n2N=C(c2ccc(Cl)cc2)CS3)cc1	28.4% (inactive)
CC(C)N=C1CCCC1C(=S)SSC(=S)C1CCCC1=NC(C)C (stereo not drawn)	68.4% (inactive)
Cc1nc2ccc(Nc3nc(Cl)nc(N4CCOCC4)n3)cc2n1Cc1ccccc1	79.4% (inactive)
CC(=O)O[C@H]1[C@H](CC#CC#CC[C@@H]2C[C@]3(C)[C@H]4CC=C5[C@H]6[C@@H](C)[C@H](C)CC[C@]6(C(=O)NCCCCCCCCN)CC[C@@]5(C)[C@]4(C)CC[C@H]3C(C)(C)[C@H]2OC(C)=O)C[C@]2(C)[C@H]3CC=C4[C@H]5[C@@H](C)[C@H](C)CC[C@]5(C(=O)NCCCCCCCCN)CC[C@@]4(C)[C@]3(C)CC[C@H]2C1(C)C	119% (inactive)
CNC(=O)c1cc(Oc2ccc(NC(=O)c3nc(S(C)(=O)=O)sc3-c3ccc(F)cc3)cc2)ccn1	90.8% (inactive)
CN1CCN(Cc2ccc(NC(=O)c3cncc(C#Cc4ncc5ccccn45)c3)cc2C(F)(F)F)CC1	13.1% (inactive)
O=C(CI)NCCNc1cccc2c(S(=O)(=O)O)cccc12	107% (inactive)
CC(C)N1CCN(c2ccncc2S(=O)(=O)N2CCN(C)CC2)CC1	101% (inactive)

###

Test system: UACC-62 melanoma
Assay: NCI-60 one-dose screen, 48 h
Settings: 10 µM unless noted
The panel holds about 83,000 compounds, 20% with a hit somewhere; the sample as a whole holds those more often. The source made the active and inactive calls. The calls were made as follows: active = growth percent below 10; inactive = the rest.
Possible outcomes: T (active), F (inactive)

Compound	Measurement target	Class label
CCCCn1c(C)nc2cc(Nc3nc(Cl)nc4nc[nH]c34)ccc21	UACC-62 melanoma	F
CC(CN1CCN(C)CC1)CN1c2ccccc2Sc2ccc(C(F)(F)F)cc21 (centres undefined)	UACC-62 melanoma	T
COc1ccc(-c2cn(-c3cccc(C(=O)/C=C/c4ccc(O)c(OC)c4)c3)c(=O)[nH]2)cc1	UACC-62 melanoma	F
CC(=O)c1c(C)nc(-c2cc(C)cc(Cl)c2)nc1-c1cccc(Oc2ccccc2)c1	UACC-62 melanoma	F
CC(=O)O[C@H]1[C@H](CC#CC#CC[C@@H]2C[C@]3(C)[C@H]4CC=C5[C@H]6[C@@H](C)[C@H](C)CC[C@]6(C(=O)NCCN(CCN)CCN)CC[C@@]5(C)[C@]4(C)CC[C@H]3C(C)(C)[C@H]2OC(C)=O)C[C@]2(C)[C@H]3CC=C4[C@H]5[C@@H](C)[C@H](C)CC[C@]5(C(=O)NCCN(CCN)CCN)CC[C@@]4(C)[C@]3(C)CC[C@H]2C1(C)C	UACC-62 melanoma	F
C#CC[C@@H]1C[C@]2(C)[C@H]3CC[C@@H]4[C@H]5C(C(=C)C)CC[C@]5(C(=O)NCCN(CCN)CCN)CC[C@@]4(C)[C@]3(C)CC[C@H]2C(C)(C)[C@H]1OC(C)=O (some centres undefined)	UACC-62 melanoma	F
CCCc1n(Cc2ccc3ccccc3c2)c2ccccc2[n+]1Cc1ccc2ccccc2c1	UACC-62 melanoma	T
Cc1ccc(N=CNN=C(N)N)cc1	UACC-62 melanoma	F
NCCCOc1cc2ccccc2cc1C(=O)NCCCOc1cc2ccccc2cc1C(=O)Nc1ccc(Cl)cc1O	UACC-62 melanoma	T
